biological target: B-RAF G466V (Homo sapiens, UniProt P15056, G466V); construct: expressed in transfected cells; host or cells: T-Rex 293 cells (Invitrogen #R71007); assay: Target protein degradation, assay D: T-Rex 293 cells, HA-BRAF_G466V, 384 well format; assay type: cell-based; settings: T-REx-293, Assay D, T-Rex 293 HA-BRAF_G466V cells, 24 hours, Examples 83-269
Sequence (P15056 whole entry G466V): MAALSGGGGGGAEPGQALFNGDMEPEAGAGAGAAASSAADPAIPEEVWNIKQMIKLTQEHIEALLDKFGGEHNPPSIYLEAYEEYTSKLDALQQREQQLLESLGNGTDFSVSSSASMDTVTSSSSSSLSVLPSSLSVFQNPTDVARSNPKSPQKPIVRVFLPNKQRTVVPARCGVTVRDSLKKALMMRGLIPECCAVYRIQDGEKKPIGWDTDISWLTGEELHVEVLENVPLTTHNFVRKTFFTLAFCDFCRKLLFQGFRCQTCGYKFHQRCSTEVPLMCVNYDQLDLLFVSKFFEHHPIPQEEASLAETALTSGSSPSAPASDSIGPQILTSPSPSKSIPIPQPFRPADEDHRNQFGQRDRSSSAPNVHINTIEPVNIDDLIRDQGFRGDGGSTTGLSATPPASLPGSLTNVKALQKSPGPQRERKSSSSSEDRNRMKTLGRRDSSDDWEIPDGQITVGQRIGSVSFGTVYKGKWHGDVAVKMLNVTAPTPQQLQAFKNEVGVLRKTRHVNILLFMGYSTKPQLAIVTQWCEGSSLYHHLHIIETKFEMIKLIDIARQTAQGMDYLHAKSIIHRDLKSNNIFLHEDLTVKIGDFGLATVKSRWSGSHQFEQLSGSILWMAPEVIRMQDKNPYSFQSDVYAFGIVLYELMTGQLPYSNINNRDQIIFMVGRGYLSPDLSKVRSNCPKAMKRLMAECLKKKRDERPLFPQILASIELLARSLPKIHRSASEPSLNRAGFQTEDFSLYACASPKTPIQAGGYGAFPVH
Dmax reference
measure.name: Dmax

1. N#Cc1c(NS(=O)(=O)N2CC[C@@H](F)C2)ccc(F)c1Oc1ccc2ncn(-c3ccc(N4CCC5(CCN(CC6CCN(c7ccc8c(c7)CN([C@H]7CCC(=O)NC7=O)C8=O)CC6)CC5)CC4)cc3)c(=O)c2c1 : 35 to 70%
2. N#Cc1c(NS(=O)(=O)N2CC[C@@H](F)C2)ccc(F)c1Oc1ccc2ncn(-c3ccc(N4CCN(CC5CCN(c6ccc7c(c6F)CN([C@H]6CCC(=O)NC6=O)C7=O)CC5)CC4)cn3)c(=O)c2c1 : 35 to 70%
3. N#Cc1c(NS(=O)(=O)N2CC[C@@H](F)C2)ccc(F)c1Oc1ccc2ncn(-c3cccc(C4CCN(CC5CCN(c6ccc7c(c6)CN([C@H]6CCC(=O)NC6=O)C7=O)CC5)CC4)c3)c(=O)c2c1 : ≥ 70%

----------
target: B-RAF G466V (Homo sapiens, UniProt P15056, G466V); construct: expressed in transfected cells; host or cells: T-Rex 293 cells (Invitrogen #R71007); assay: Target protein degradation, assay D: T-Rex 293 cells, HA-BRAF_G466V, 384 well format; type: cell-based; conditions: Assay D, T-Rex 293 HA-BRAF_G466V cells, 24 hours, Examples 83-269
DC50 reference
measure.name: DC50

1. N#Cc1c(NS(=O)(=O)N2CC[C@@H](F)C2)ccc(F)c1Oc1ccc2ncn(-c3ccc(N4CCC(CN5CCC6(CC5)CN(c5cccc7c5CN(C5CCC(=O)NC5=O)C7=O)C6)CC4)nc3)c(=O)c2c1 (stereo partly shown) [Example 169] : 1 to 10 nM
2. N#Cc1c(NS(=O)(=O)N2CC[C@@H](F)C2)ccc(F)c1Oc1ccc2ncn(-c3ccc(N4CCC(CN5CC6(CCC(c7ccc8c(c7)CN(C7CCC(=O)NC7=O)C8=O)CC6)C5)C4)cc3)c(=O)c2c1 (single isomer, unassigned) [Example 260] : 1 to 10 nM
3. N#Cc1c(NS(=O)(=O)N2CC[C@@H](F)C2)ccc(F)c1Oc1ccc2ncn(-c3ccc(N4CCC(OC5CC6(C5)CN(c5ccc7c(c5)CN(C5CCC(=O)NC5=O)C7=O)C6)CC4)cc3)c(=O)c2c1 (stereo partly shown) [Example 178] : 10 to 30 nM
4. Cc1cc(N2CCC(CN3CCN(c4ccc(-n5cnc6ccc(Oc7c(F)ccc(NS(=O)(=O)N8CC[C@@H](F)C8)c7C#N)cc6c5=O)cc4)CC3)CC2)c(F)c2c1C(=O)N(C1CCC(=O)NC1=O)C2 (stereo partly shown) [Example 94] : 1 to 10 nM

----------
molecular target: B-RAF V600E (Homo sapiens, UniProt P15056, V600E); construct: expressed in transfected cells; host or cells: T-Rex 293 cells (Invitrogen #R71007); test: Target protein degradation, assay A: T-Rex 293 cells, HA-B-RAF_V600E, 96 well format; format: cell-based; details: T-Rex 293 HA-B-RAF_V600E cells, 24 hours, Examples 1-82
Sequence (P15056 whole entry V600E): as the sequence (P15056 whole entry G466V) above, with V466G, V600E counted along it
measure.name: DC50

1. Cn1c(=O)n(C2CCC(=O)NC2=O)c2ccc(N3CCC(CN4CCN(c5ccc(-n6cnc7ccc(Oc8c(F)ccc(NS(=O)(=O)N9CC[C@@H](F)C9)c8C#N)cc7c6=O)cc5)CC4)CC3)cc21 (some centres unmarked) [Example 78] : 5 to 50 nM
2. N#Cc1c(NS(=O)(=O)N2CC[C@@H](F)C2)ccc(F)c1Oc1ccc2ncn(-c3ccc(N4CCN(CC5CCN(c6ccc(C7CCC(=O)NC7=O)cc6F)CC5)CC4)cc3)c(=O)c2c1 (some centres unmarked) [Example 13] : 5 to 50 nM
3. N#Cc1c(NS(=O)(=O)N2CC[C@@H](F)C2)ccc(F)c1Oc1ccc2ncn(-c3ccc(N4CCC(OC5CCN(c6ccc7c(c6)CN(C6CCC(=O)NC6=O)C7=O)CC5)CC4)cc3)c(=O)c2c1 (some centres unmarked) [Example 82] : 50 to 500 nM
4. N#Cc1c(NS(=O)(=O)N2CC[C@@H](F)C2)ccc(F)c1Oc1ccc2ncn(-c3ccc(N4CCN(C(=O)CC5(O)CCN(c6ccc7c(c6)CN([C@H]6CCC(=O)NC6=O)C7=O)CC5)CC4)cc3)c(=O)c2c1 [Example 4] : 5 to 50 nM
5. N#Cc1c(NS(=O)(=O)N2CC[C@@H](F)C2)ccc(F)c1Oc1ccc2ncn(-c3ccc(N4CCN(CC5CCN(c6ccc([C@H]7CCC(=O)NC7=O)cc6F)CC5)CC4)cc3)c(=O)c2c1 (single isomer, unassigned) [Example 80] : 50 to 500 nM
